- Test system: SF-539 CNS
- ASSAY DETAILS: NCI-60 one-dose screen, 48 h
- STATED CONDITIONS: 10 µM unless noted
Compounds without any hit were thinned out: in the full panel of roughly 83,000, 20% have a hit. Active and inactive are the calls of the source. Rule for the calls: active = growth percent below 10; inactive = the rest.
Your reply should match one of these outcome classes. 1 (yes) (active), 0 (no) (inactive)

Ask: Could you kindly confirm the outcome this assay logged for O=C1OCC2=C1C(c1cccc(Br)c1)c1cc3c(cc1N2CCO)OCCO3 (stereo not given) ?
Result: 1 (yes)

Ask: Follow-up item: "COc1cc(C)cc2oc3oc(=O)c(-c4csc(-c5cc6ccccc6oc5=O)n4)cc3c(=O)c12"
Result: 0 (no)

Ask: Next record, please: "COc1cc2nccc(Oc3ccc(NC(=O)C4(C(=O)Nc5ccc(F)cc5)CC4)cc3)c2cc1OC(=O)c1ccc(N)cc1"
Result: 1 (yes)

Ask: Same for COc1ccc(C2CC(c3ccc(Nc4ccnc5cc(Cl)ccc45)cc3)=NN2c2ccccc2)cc1 (stereo not given)
Result: 0 (no)

Ask: // next record "CCCCn1c(C)nc2ccc(Nc3nc(Cl)nc4nc[nH]c34)cc21"
Result: 0 (no)

Ask: Would you kindly repeat that for "COc1cccc(Cn2c(-c3nonc3NC(C)=O)nc3ccccc32)c1" ?
Result: 0 (no)

Ask: Next entry: COc1ccc(C2C=C(c3ccc(Cl)cc3)N=C3SC=CN32)cc1 (stereo not given)
Result: 0 (no)

Ask: Okay, and "COc1ccc(/C=C/C(=O)c2ccc(NC(=O)CSc3nnc(-c4ccc(Cl)cc4)n3-c3ccccc3)cc2)cc1" ?
Result: 0 (no)

Ask: Also check "O=c1cc(N2CCOCC2)oc2c(-c3ccc4c(c3)OCCO4)csc12"
Result: 1 (yes)

Ask: Follow-up item: "CC(C)N1CCN(c2ccncc2S(=O)(=O)N2CCN(C)CC2)CC1"
Result: 0 (no)

###

- System: SK-OV-3 ovarian
- ASSAY DETAILS: NCI-60 one-dose screen, 48 h (100 = growth as untreated, 0 = no growth, -100 = all killed)
- STATED CONDITIONS: 10 µM unless noted
The panel holds about 83,000 compounds, 20% with a hit somewhere; the sample as a whole holds those more often.
MEASUREMENT TYPE: growth (%)
Numeric answer only, unit % assumed.

Ask: Quick check: growth of "COc1ccc(/C=C(/C(=O)N2CCN(c3ccccc3)CC2)c2cc(OC)c(OC)c(OC)c2)cc1N" ?
Result: 36.9

Ask: Try this compound next: "O=C(O)c1ccccc1N=Cc1ccccc1"
Result: 104

Ask: Okay, and "O=C(C=P(c1ccccc1)(c1ccccc1)c1ccccc1)CCl" ?
Result: 24.6

Ask: Ok, now O=C1CC2(O)CSc3nc(=O)cc(n32)N1 (configuration not stated)
Result: 102

Ask: Try the compound "Cc1nc2c(-c3cnc(N)nc3)nc(N3CCOCC3)nc2n1C(C)C"
Result: -39.7

Ask: Try the compound "Cc1[nH]nc2ccc3nc(-c4ccc5[nH]ncc5c4)c4c(c3c12)CCCC4"
Result: -19.6

Ask: Lookup O=C(/C=C/c1ccccc1)C(Br)C(Br)c1ccccc1 (configuration not stated)
Result: 86.1

Ask: Also check "O=C(CCc1nc2sc3c(c2c(=O)[nH]1)CCC3)NCc1cn(-c2ccccc2)nc1-c1ccccc1"
Result: 68.5

Ask: Further, for "O=c1[nH]c2cc(Cl)c(Cl)cc2o1" ?
Result: 107

Ask: # iterate: "Oc1[nH]c2ccc(Cl)cc2c1/C=c1/ccc2c(c1)N=C(c1ccc(F)cc1)N=2"
Result: 87.4

Ask: Try "CC(=O)Nc1ccc(Cl)cc1Cl" next.
Result: 108

Ask: Also "COc1ccc(/C=c2\c(=O)n(-c3ccccc3)c3nn4c(=O)c(=O)[nH]nc4n23)cc1" , if possible.
Result: 113

Ask: Follow-up entry: O=C1c2ccccc2C2N1CCC1CCc3ccccc3N12 (configuration not stated)
Result: 109

Ask: Field entry: "CN1CCN(Cc2ccc(NC(=O)c3cncc(C#Cc4ncc5ccccn45)c3)cc2C(F)(F)F)CC1"
Result: 19.6

Ask: Entry to check: COc1cc(NC(C)CCCN)c2ncccc2c1Oc1ccc(Cl)cc1 (configuration not stated)
Result: 98.6

Ask: How about this compound: "O=C(Nc1ccccc1Cl)Oc1ccc2ccccc2c1"
Result: 93.5

Ask: Moving on to the next compound: "CCCCN(CCCC)CCC(=O)c1ccc(OC)c2ccccc12"
Result: 107

Ask: Moving on to CC1=NC(c2ccc(Cl)cc2)C2=C(N1)/C(=C/c1ccc(Cl)cc1)CCC2 (configuration not stated)
Result: 109

Ask: Input COc1cc(C2CC(c3ccc(Cl)cc3)=NN2C=O)ccc1OS(=O)(=O)c1ccc(C)cc1 (configuration not stated)
Result: 96.3

Ask: Cool, now "COc1ccc(-n2nc(C(=O)NCC(=O)Nc3nc4cc(OC)ccc4s3)c3ccccc3c2=O)cc1"
Result: -18.5

Ask: One more compound: "CC(C)(C)c1ccc(Cn2c(-c3nonc3N)nc3ccccc32)cc1"
Result: 61

Ask: Check "COc1ccc(/C(=C\c2ccc3c(c2)OCO3)C(=O)Nc2nc3ccc(F)cc3s2)cc1OC" too.
Result: 100

###

- Tested on: HCT-15 colon
- ASSAY DETAILS: NCI-60 one-dose screen, 48 h
- STATED CONDITIONS: 10 µM unless noted
- Protocol: Growth inhibition of the HCT-15 human tumor cell line is measured as a screen for anti-cancer activity. Cells are grown in 96 well plates and exposed to the test compound for 48 hours. Compounds are tested at a single concentration, which is 10^-5 M for most compounds. The reported endpoint is percent growth (GI% or GIPRCNT), where numbers from 0 - 100% represent growth inhibition, and numbers from -100% - 0 represent cell death. For example, a value of 40 represents 60% growth inhibition. […]
The panel holds about 83,000 compounds, 20% with a hit somewhere; the sample as a whole holds those more often. Activity calls are given as the source filed them. The calls were made as follows: active = growth percent below 10; inactive = the rest.
// classify into t = active, f = inactive

Ask: Record lookup: outcome of this test for "Fc1ccc2c(CN3CCO[C@H](COc4cccc(Cl)c4)C3)c[nH]c2c1" ?
Result: f

Ask: Now the same for Nc1nc2c(c3ncccc13)C(c1ccccc1)Cc1ncccc1-2 (configuration not stated)
Result: f

Ask: Also, CC1=C(C(=O)Nc2ccc(F)cc2)C(c2ccc(C)cc2)C2=C(CC(C)(C)CC2=O)N1 (configuration not stated) please.
Result: f

Ask: And "O=C(CS)OCC(COC(=O)CS)(COC(=O)CS)COC(=O)CS" ?
Result: f

Ask: "Cc1nn(-c2ccc(Cl)cc2)c(=O)n1CCN1CCOCC1" , same question.
Result: f

Ask: Next compound up: "Cn1nc(C(F)(F)F)cc1-c1cc(Cl)c(OCc2ccc(Cl)cc2)c(-c2ccc(Cl)c(C(F)(F)F)c2)c1O"
Result: t

Ask: Also, "COc1ccc(NC(=O)/C=C/c2ccc(NC(=O)N3CCCC3)cc2)cn1" please.
Result: f

Ask: Can you check COc1ccc(C(=O)C(C#N)c2cc(OC)c(OC)c(OC)c2)cc1 (configuration not stated) next?
Result: f

Ask: Again, but for COc1cc(NC(C)CCCN)c2ncccc2c1Sc1ccc(Cl)cc1 (configuration not stated)
Result: f

Ask: Now try "C#CCNC(=S)N/N=C(\C)c1ccccn1" .
Result: f

Ask: Please do the same for "Cc1n(Cc2ccc3ccccc3n2)cc[n+]1Cc1ccc2ccccc2c1" as well.
Result: f

Ask: Likewise for "C[C@]12CCc3nc(Nc4ccc(O)cc4)sc3C1=CC[C@@H]1[C@@H]2CC[C@]2(C)/C(=N/NC(N)=S)CC[C@@H]12" ?
Result: t

Ask: Subsequent entry: O=C(C(Br)C(Br)c1ccccc1)C(Br)C(Br)c1ccccc1 (configuration not stated)
Result: t

Ask: Can you check CCCCNCC(O)c1cc2c(Cl)cc(Cl)cc2c2cc(C(F)(F)F)ccc12 (configuration not stated) next?
Result: t

Ask: Okay, and "Cc1[nH]nc2ccc3nc(-c4ccc5[nH]ncc5c4)c4c(c3c12)CCCC4" ?
Result: f

Ask: Quick one: "O=C(C=P(c1ccccc1)(c1ccccc1)c1ccccc1)CCl"
Result: t

Ask: Here is the next compound: "CC(=O)N(C)c1ccc(Nc2cc(C)[nH]c3ccc4ncnc4c23)cc1"
Result: f

Ask: How about "CCCCc1n(Cc2ccc3ccccc3n2)cc[n+]1Cc1ccc2ccccc2n1" ?
Result: f

Ask: Moving on to the next compound: "Cc1cccc(C(=O)O)n1"
Result: f

Ask: Now the same for "Cc1cc(C)c2c(n1)sc1c(Nc3ccc(O)cc3)ncnc12"
Result: f

Ask: // same read-out, input: O=C(Nc1ccccc1)C(CCCCN1C(=O)c2ccccc2C1=O)N1C(=O)c2ccccc2C1=O (configuration not stated)
Result: f

Ask: Same question for COC(=O)C(C)NC1=C(Cl)C(=O)C(NC(C)C(=O)OC)=C(Cl)C1=O (configuration not stated) please.
Result: f
